Below is a list of entries, each paired with its recorded pIC50 value.
# Study system: K-Ras G12C (Homo sapiens, UniProt P01116, G12C)
# Protocol details: K-Ras G12C, SOS1, Raf RBD HTRF assay for inhibition of GTP exchange
# Assay type: biochemical
# Parameters: K-Ras G12C (residues 2-188) and SOS1 (residues 564-1049) had N-terminal 6-His; made in house; host or cells: E. coli
# Experimental conditions: 18 hours preincubation with K-Ras G12C at room temperature; SOS1-mediated GTP exchange
# Sequence (P01116 2-188 isoform P01116-2 G12C): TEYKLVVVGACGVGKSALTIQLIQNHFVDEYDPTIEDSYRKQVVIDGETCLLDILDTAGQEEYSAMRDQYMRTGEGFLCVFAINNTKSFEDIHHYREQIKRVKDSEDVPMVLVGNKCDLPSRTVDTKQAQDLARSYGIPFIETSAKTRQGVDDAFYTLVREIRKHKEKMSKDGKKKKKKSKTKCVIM
# reply with the number alone; pIC50 is -log10 of concentration in mol/L

Sample records with pIC50:
[
  {
    "Compound": "C=CC(=O)N1CCN(c2ncnc3c2C[C@@H](C)[C@H](c2nc(N)ccc2C(F)(F)F)C3)CC1 (single isomer, unassigned) [Example 42b]",
    "Study system": "K-Ras G12C (Homo sapiens, UniProt P01116, G12C)",
    "pIC50": 7.17
  },
  {
    "Compound": "C=CC(=O)N1CCN(c2nc(OC[C@@H]3CCCN3C)nc3c2C[C@H](C)[C@@H](c2cccc4c2CCC4)C3)C[C@@H]1CC#N (single isomer, unassigned) [Example 35c]",
    "Study system": "K-Ras G12C (Homo sapiens, UniProt P01116, G12C)",
    "pIC50": 7.66
  },
  {
    "Compound": "C=C(F)C(=O)N1CCN(c2nc(OC[C@@H]3CCCN3C)nc3c2C[C@H](C)[C@@H](c2c(F)c(N)cc(C)c2C(F)(F)F)C3)C[C@H]1CC#N (single isomer, unassigned) [Example 34b]",
    "Study system": "K-Ras G12C (Homo sapiens, UniProt P01116, G12C)",
    "pIC50": 6.17
  }
]

Please fill in: pIC50 reported for C=CC(=O)N1C[C@H](C)N(c2nc(OC[C@@H]3CCCN3C)nc3c2CCC(c2cc(O)cc4ccccc24)C3)[C@@H](C)C1 (some centres unmarked) [Example 56a] = 7.14

----------
# Study system: K-Ras G12C (Homo sapiens, UniProt P01116, G12C)
# Protocol details: Western blot assay for in cell alkylation of K-Ras G12C (HCC1171 cells)
# Experimental conditions: 18 hours at 37° C., 7 point dose response
# Sequence (P01116 1-188 isoform P01116-2 G12C): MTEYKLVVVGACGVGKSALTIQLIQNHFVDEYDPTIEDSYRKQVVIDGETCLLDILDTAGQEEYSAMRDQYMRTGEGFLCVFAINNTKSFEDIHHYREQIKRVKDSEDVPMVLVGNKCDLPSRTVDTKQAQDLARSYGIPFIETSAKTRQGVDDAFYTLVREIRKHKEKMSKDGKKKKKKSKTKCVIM
Reported endpoint: EC50 (nM)
Provide only the numeric value, understood in nM.

[
  {
    "Molecule": "C=CC(=O)N1CCN(c2nc(OC[C@@H]3CCCN3C)nc3c2C[C@H](C)[C@@H](c2cc(O)cc4ccccc24)C3)[C@@H](C)C1 (single isomer, unassigned) [Example 22a]",
    "Unit symbol": "nM",
    "EC50": 100
  },
  {
    "Molecule": "C=CC(=O)N1CCN(c2ncnc3c2CC(C)C(c2cc(O)cc4ccccc24)C3)CC1 (stereo not drawn) [Example 39]",
    "Unit symbol": "nM",
    "EC50": 720
  },
  {
    "Molecule": "C=CC(=O)N1CCN(c2ncnc3c2C[C@H](C)[C@@H](c2c(C)ccc4[nH]ncc24)C3)CC1 (single isomer, unassigned) [Example 15b]",
    "Unit symbol": "nM",
    "EC50": 30000
  },
  {
    "Molecule": "C=CC(=O)N1CCN(c2nc(OC[C@@H]3CCCN3C)nc3c2CC[C@H](c2cc(O)cc4ccccc24)C3)[C@@H](C)C1 (single isomer, unassigned) [Example 28b]",
    "Unit symbol": "nM",
    "EC50": 23
  },
  {
    "Molecule": "C=C(F)C(=O)N1CCN(c2nc(OC[C@@H]3C[C@@H](F)CN3C)nc3c2C[C@@H](C)[C@H](c2c(F)c(N)cc(C)c2C(F)(F)F)C3)C[C@H]1CC#N (single isomer, unassigned) [Example 38c]",
    "Unit symbol": "nM",
    "EC50": 24
  }
]

molecule C=CC(=O)N1CCC(C#N)(c2nc(OC[C@@H]3CCCN3C)nc3c2CCC(c2cc(O)cc4ccccc24)C3)CC1 (stereo partly drawn) [Example 7a] , EC50 observed: 2500

Looking up C=CC(=O)N1CCN(c2nc(OC[C@@H]3CCCN3C)nc3c2CCC2(CCCCC2)C3)CC1 [Example 25a] , I see its EC50 listed as 1000

Value of EC50 reported for the molecule C=CC(=O)N1CCN(c2ncnc3c2CCC(c2c(C)ccc4cn[nH]c24)C3)CC1 (stereo not drawn) [Example 17] is 6700

EC50 reading for C=CC(=O)Oc1cc(C2CCc3c(nc(OC[C@@H]4CCCN4C)nc3N3CCN(C(=O)C=C)C(CC#N)C3)C2)c2ccccc2c1 (stereo partly drawn) [Example 59a] : 29

Looking up C=CC(=O)N1CCN(c2nc(OC[C@@H]3CCCN3C)nc3c2C[C@H](C)[C@@H](c2c(C(F)(F)F)ccc(N)c2F)C3)[C@@H](C)C1 (single isomer, unassigned) [Example 23a] , I see its EC50 listed as 1000

Entry under test: C=CC(=O)N1C[C@H](C)N(c2nc(OC[C@@H]3CCCN3C)nc3c2C[C@@H](C)[C@H](c2cc(O)cc4ccccc24)C3)[C@@H](C)C1 (single isomer, unassigned) [Example 32a] . Its EC50 was 120

EC50 in this record for C=CC(=O)N1CCN(c2ncnc3c2CC[C@@H](c2cncc4ccccc24)C3)CC1 (single isomer, unassigned) [Example 44a] : 1000
